These records show Ki for Hrh3 protein (Rattus norvegicus).
Please give a number only; it is taken to be in nM.

CN(C)CCCSC(=N)N
440

Qu. Dear colleague, please send me the reported Ki for NCCc1c[nH]cn1 [[3H]histamine] when you can.
Ans. 11

Qu. In one line, give reported Ki of the entry S=C(NC1CCCCC1)N1CCC(c2cnc[nH]2)CC1 .
Ans. 16

Qu. Consider the compound CN/C(=N/CCSCc1nc[nH]c1C)NC#N and give its recorded Ki.
Ans. 8000

Qu. Assign Ki to the following record: CNCCc1c[nH]cn1
Ans. 0.45

Qu. Dear colleague, please send me the reported Ki for C[C@@H](N)Cc1c[nH]cn1 when you can.
Ans. 1.2

Taken from BindingDB's records for doi:10.1111/j.1471-4159.1990.tb04946.x.
